OBSERVED PROPERTY: melting point

{"columns": ["COMPOUND", "MEASUREMENT"],
 "data": [
  ["NC(=S)NC(N)=S", "181 to 183 °C"],
  ["OCc1cc(-c2cccs2)on1", "62 to 64 °C"],
  ["O=C(CCl)Nc1ccccc1Cl", "70 to 73 °C"],
  ["O=S(=O)(O)CCNC(CO)(CO)CO", "223 to 225 °C"],
  ["O=C1CC(c2ccccc2)Oc2ccc(O)cc21 (stereo not given)", "220 to 222 °C"]
]}

====

{"columns": ["COMPOUND", "melting point"],
 "data": [
  ["CCOC(=O)c1nn(-c2ccc(Cl)cc2Cl)c(-c2ccc([N+](=O)[O-])cc2)c1S(=O)(=O)c1ccccc1", "118 °C"],
  ["O=C(Cc1ccccc1)OCCc1ccccc1", "26.5 °C"],
  ["C=CC(=O)NC(O)C(=O)O (stereo not drawn)", "123 to 127 °C"],
  ["O=C(O)Cc1ccccc1[N+](=O)[O-]", "141 °C"],
  ["O=C(Nc1cccnc1Cl)c1cccc(C(F)(F)F)c1", "83 to 85 °C"],
  ["FC(F)(F)c1cc(-c2ccc3c(c2)OCO3)n[nH]1", "177 to 179 °C"],
  ["Nc1nc2ccccc2n1Cc1ccc(Cl)cc1", "197 to 199 °C"],
  ["O=c1[nH]c2ccccc2n1CCCCl", "115 to 125 °C"]
]}
